A collection of compounds and their measured Ki
# test-description: Inhibition of bacterial N-terminal His-tagged TEV protease site linked OXA-48 (1 to 265 amino acids) expressed in Escherichia coli Transetta (DE3) preincubated for 10 mins followed by FC5 fluorescent substrate addition by fluorescence assay
# Set-up: species or system Bacteria
property-name: Ki

compound	property-name	result
O=C(CCS)N[C@@H](Cc1ccccc1)B(O)O	Ki	247 µM
CC(C)C[C@H](NC(=O)[C@H](C)CS)B(O)O	Ki	> 300 µM
O=C(N[C@@H](Cc1ccccc1)B(O)O)[C@@H](CS)NCc1ccccc1	Ki	50.2 µM
C[C@H](CS)C(=O)N[C@H](B(O)O)c1ccc(F)cc1	Ki	> 300 µM
O=C(CCS)N[C@H](Cc1coc2ccccc12)B(O)O	Ki	> 300 µM
C[C@H](CS)C(=O)NCB(O)O	Ki	70.2 µM
COc1ccc(C[C@H](NC(=O)[C@H](C)CS)B(O)O)cc1	Ki	172 µM
C[C@H](CS)C(=O)N[C@H](Cc1ccccc1)B(O)O	Ki	> 300 µM
COc1ccc(C[C@@H](NC(=O)[C@H](C)CS)B(O)O)cc1	Ki	> 300 µM
C[C@H](CS)C(=O)N[C@H](B(O)O)c1ccccc1	Ki	> 300 µM
O=C(CS)N[C@@H](Cc1ccccc1)B(O)O	Ki	50.5 µM
C[C@H](CS)C(=O)N[C@@H](B(O)O)c1ccc(F)cc1	Ki	> 300 µM
C[C@H](CS)C(=O)NCC(=O)O	Ki	> 300 µM
C[C@H](CS)C(=O)N[C@H](B(O)O)c1ccc2ccccc2c1	Ki	> 300 µM
CCCC(=O)N[C@@H](Cc1ccccc1)B(O)O	Ki	> 300 µM
O=C(CS)N[C@H](Cc1coc2ccccc12)B(O)O	Ki	217 µM
O=C(N[C@@H](Cc1ccccc1)B(O)O)[C@@H](CS)N1C(=O)c2ccccc2C1=O	Ki	> 300 µM
Cc1ccc([C@@H](NC(=O)[C@H](C)CS)B(O)O)cc1	Ki	> 300 µM
C[C@H](CS)C(=O)N1CCC[C@H]1C(=O)O	Ki	> 300 µM
CCC(=O)N[C@@H](Cc1ccccc1)B(O)O	Ki	> 300 µM
CCCC(=O)NCB(O)O	Ki	102 µM
C[C@H](CS)C(=O)N[C@@H](B(O)O)c1ccccc1	Ki	257 µM
C[C@H](CS)C(=O)N[C@H](Cc1coc2ccccc12)B(O)O	Ki	201 µM
CC(C)[C@@H](NC(=O)[C@H](C)CS)B(O)O	Ki	> 300 µM
C[C@H](CS)C(=O)N[C@@H](Cc1coc2ccccc12)B(O)O	Ki	> 300 µM
C[C@H](CS)C(=O)N[C@@H](B(O)O)c1ccc2ccccc2c1	Ki	> 300 µM
C[C@H](CS)C(=O)N[C@@H](Cc1ccccc1)B(O)O	Ki	25.8 µM
C[C@H](CS)C(=O)N[C@@H](Cc1ccc(F)cc1)B(O)O	Ki	85.8 µM
Cc1ccc([C@H](NC(=O)[C@H](C)CS)B(O)O)cc1	Ki	> 300 µM
CC(C)[C@H](NC(=O)[C@H](C)CS)B(O)O	Ki	> 300 µM
CCC(=O)NCB(O)O	Ki	> 300 µM
C[C@H](CS)C(=O)N[C@H](Cc1ccc(F)cc1)B(O)O	Ki	> 300 µM
C[C@]1(Cn2ccnn2)[C@H](C(=O)O)N2C(=O)C[C@H]2S1(=O)=O	Ki	15.7 µM
O=C(N[C@@H](Cc1ccccc1)B(O)O)C(CS)Cc1ccccc1 (stereo not given in full)	Ki	> 300 µM
CC(C)C[C@@H](NC(=O)[C@H](C)CS)B(O)O	Ki	> 300 µM
